Where a SMILES comes first, the peptide text is derived from it.
PROPERTY: Ki (µM)
Please respond with the number in µM and leave the unit unwritten.

-- ask Given the entry NC(=O)[C@@H]1CCCN1C(=O)[C@H](Cc1ccccc1)NC(=O)[C@@H]1CCCN1C(=O)[C@@H](N)Cc1ccc(O)cc1 [CAS_79805-24-6] (H-YPFP-NH2) , what Ki was observed with Mu-type opioid receptor (Rattus norvegicus, UniProt P33535)?
-- reply 1.16
